Where these numbers come from: ChEMBL document CHEMBL2029274

test system: MDA-MB-231; assay: Antiproliferative activity against human MDA-MB-231 cells; assay type: functional
In this section, each of the compounds is paired with its reported GI50.
Assay endpoint: GI50 (nM)

* COc1ccccc1CN1CC=C(CCC(=O)NO)C1=O | 6030
* COc1ccc(CCCN2CC=C(CCC(=O)NO)C2=O)cc1 | 2560
* O=C(CCC1=CCN(CCc2ccccc2)C1=O)NO | 990
* O=C(CCC1=CCN(Cc2ccc(C(F)(F)F)cc2)C1=O)NO | 3070
* COc1cccc(CCN2CC=C(CCC(=O)NO)C2=O)c1 | 1880
* COc1cccc(CN2CC=C(CCC(=O)NO)C2=O)c1 | 1770
* COc1cccc(CCCN2CC=C(CCC(=O)NO)C2=O)c1 | 1880
* O=C(CCC1=CCN(Cc2ccccc2)C1=O)NO | 990
* O=C(CCC1=CCN(CCc2cccc(C(F)(F)F)c2)C1=O)NO | 2170
* COc1ccc(CN2CC=C(CCC(=O)NO)C2=O)cc1 | 1630
* O=C(CCC1=CCN(Cc2cccc(C(F)(F)F)c2)C1=O)NO | 220
* COc1ccccc1CCN1CC=C(CCC(=O)NO)C1=O | 1500

* * *

system: NCI-H23; assay: Antiproliferative activity against human NCI-H23 cells; assay type: functional
GI50 strictly less than 2000 nM = yes. Otherwise no.

* O=C(CCC1=CCN(Cc2ccc(C(F)(F)F)cc2)C1=O)NO | no
* COc1ccc(CCN2CC=C(CCC(=O)NO)C2=O)cc1 | no
* COc1cccc(CCCN2CC=C(CCC(=O)NO)C2=O)c1 | yes
* COc1ccc(CCCN2CC=C(CCC(=O)NO)C2=O)cc1 | no
* COc1cccc(CCN2CC=C(CCC(=O)NO)C2=O)c1 | yes
* COc1ccccc1CN1CC=C(CCC(=O)NO)C1=O | no
* O=C(CCC1=CCN(CCc2cccc(C(F)(F)F)c2)C1=O)NO | yes

* * *

system: PC-3; assay: Antiproliferative activity against human PC3 cells; assay type: functional
Binary call on GI50 with cut-off 4 µM: strictly below means Criterion met, and equality or higher means Criterion not met.

• COc1ccc(CN2CC=C(CCC(=O)NO)C2=O)cc1 = Criterion met
• COc1ccc(CCCN2CC=C(CCC(=O)NO)C2=O)cc1 = Criterion not met
• O=C(CCC1=CCN(Cc2ccc(C(F)(F)F)cc2)C1=O)NO = Criterion not met
• COc1ccc(CCN2CC=C(CCC(=O)NO)C2=O)cc1 = Criterion met
• O=C(CCC1=CCN(CCc2ccc(C(F)(F)F)cc2)C1=O)NO = Criterion met
